- system-tested: S. aureus GyrB ATPase (Staphylococcus aureus, UniProt P0A0K8)
- Sequence (P0A0K8 whole entry): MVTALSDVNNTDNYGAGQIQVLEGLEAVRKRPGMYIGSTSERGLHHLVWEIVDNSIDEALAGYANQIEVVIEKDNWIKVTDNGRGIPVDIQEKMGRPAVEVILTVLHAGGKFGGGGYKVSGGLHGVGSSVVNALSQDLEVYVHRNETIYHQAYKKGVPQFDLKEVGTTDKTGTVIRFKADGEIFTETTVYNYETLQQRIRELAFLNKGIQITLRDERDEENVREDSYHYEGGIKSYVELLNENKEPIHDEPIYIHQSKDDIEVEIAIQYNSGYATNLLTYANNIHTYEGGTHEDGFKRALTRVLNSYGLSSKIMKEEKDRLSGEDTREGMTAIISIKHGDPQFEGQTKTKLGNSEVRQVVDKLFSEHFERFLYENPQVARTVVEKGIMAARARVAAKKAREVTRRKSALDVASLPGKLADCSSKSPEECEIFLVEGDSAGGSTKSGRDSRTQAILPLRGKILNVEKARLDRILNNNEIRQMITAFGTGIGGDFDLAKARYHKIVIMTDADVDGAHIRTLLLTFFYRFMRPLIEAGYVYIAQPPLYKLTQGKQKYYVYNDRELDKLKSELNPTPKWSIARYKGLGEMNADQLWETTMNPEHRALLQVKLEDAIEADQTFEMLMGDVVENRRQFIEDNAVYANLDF
- Sequence (P0AES4 whole entry, further chain): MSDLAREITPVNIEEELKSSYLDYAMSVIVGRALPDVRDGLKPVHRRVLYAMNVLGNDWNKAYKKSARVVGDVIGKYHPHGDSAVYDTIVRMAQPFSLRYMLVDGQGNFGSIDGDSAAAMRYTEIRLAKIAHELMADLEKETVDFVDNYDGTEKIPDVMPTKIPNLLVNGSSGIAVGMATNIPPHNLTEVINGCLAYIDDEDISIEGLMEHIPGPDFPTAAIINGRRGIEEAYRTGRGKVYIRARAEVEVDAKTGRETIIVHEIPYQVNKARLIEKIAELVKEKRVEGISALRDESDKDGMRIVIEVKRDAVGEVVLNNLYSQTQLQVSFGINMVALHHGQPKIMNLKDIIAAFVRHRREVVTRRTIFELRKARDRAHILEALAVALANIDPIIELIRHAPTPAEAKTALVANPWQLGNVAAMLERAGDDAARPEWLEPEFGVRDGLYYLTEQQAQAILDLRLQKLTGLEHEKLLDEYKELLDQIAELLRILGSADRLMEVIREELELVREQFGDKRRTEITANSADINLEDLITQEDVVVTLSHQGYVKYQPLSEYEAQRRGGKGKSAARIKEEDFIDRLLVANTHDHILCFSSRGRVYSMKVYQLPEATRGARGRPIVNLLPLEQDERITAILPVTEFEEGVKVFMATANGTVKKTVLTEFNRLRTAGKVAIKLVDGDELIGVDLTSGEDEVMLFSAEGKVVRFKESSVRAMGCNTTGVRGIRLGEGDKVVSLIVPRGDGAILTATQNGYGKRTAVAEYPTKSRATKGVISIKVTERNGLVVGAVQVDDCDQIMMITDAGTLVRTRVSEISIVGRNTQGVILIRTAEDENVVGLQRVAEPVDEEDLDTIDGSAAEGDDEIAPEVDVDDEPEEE
- method-description: S. aureus (SAU) GyrB ATPase inhibition, malachite green phosphate detection (E. coli GyrA + S. aureus GyrB)
- Assay type: biochemical
- settings: compound concentration of 1.0 μM unless otherwise noted; average value where assay was carried out more than once; read-out: S. aureus (SAU) GyrB ATPase % Inhibition
property: inhibition at 1 µM (%)

| compound | unit-text | reported-value |
| --- | --- | --- |
| CCNC(=O)Nc1cc(-c2nnc(-c3ccccc3)o2)c(-c2ccnc(-c3nnc(C)o3)c2)cn1 [Example 229] | % | 99 |
| CCNC(=O)Nc1cc(-c2nc(C(F)(F)F)cs2)c(-c2ccc3nccnc3c2)cn1 [Example 13] | % | 103 |
| CCNC(=O)Nc1cc(-c2nc(C(F)(F)F)cs2)c(-c2cncc(-c3nnc(N4CCN(C(C)=O)CC4)o3)c2)cn1 [Example 156] | % | 95 |

Values compiled from patent US20120101100A1.
